test system: ACHN renal; assay: NCI-60 one-dose screen, 48 h; conditions: 10 µM unless noted
About 83,000 compounds went through this panel and 20% of them were active in at least one assay; those are over-represented in the sample as a whole. Activity calls are given as the source filed them. The calls were made as follows: active = growth percent below 10; inactive = the rest.
Lab note: assign the record to one of active, inactive

Example cases with answers are listed next.
CC(=O)O[C@H]1C[C@H](O[C@H]2[C@@H](O)C[C@H](O[C@H]3[C@@H](O)C[C@H](O[C@H]4CC[C@@]5(C)C(CCC6C5C[C@@H](O)[C@]5(C)[C@@H](C7=CC(=O)OC7)CC[C@]65O)C4)O[C@@H]3C)O[C@@H]2C)O[C@H](C)[C@H]1O[C@@H]1O[C@H](CO)[C@@H](O)[C@H](O)[C@H]1O (some centres not stated); active
NC(=O)OCC(CO)(c1ccccc1)c1ccccc1; inactive
CCC1CN1P(=O)(OCCOC)N1CC1CC (configuration not stated); inactive
CCN1CC2(CN(CC)C1=S)C(=O)NC(=O)NC2=O; inactive

Q: Look up the recorded call for `NS(=O)(=O)c1nc[nH]c1[N+](=O)[O-]` in this test.
Result: inactive

Q: Any idea what this test logged for CN1C(=O)NC(=O)C(N=Nc2ccc(Cl)cc2)C1=O (configuration not stated) ?
Result: inactive

Q: Which outcome was assigned to `C[CH2][Pb]([CH2]C)([CH2]C)[O]C(=O)COc1ccccc1` in this test?
Result: inactive

Q: Record request — test call for COc1ccc(C2SCC(=O)Nc3c2c(C)nn3-c2nc3ccc(C)cc3s2)cc1O (configuration not stated)
Result: inactive

Q: Please let me know the test result on file for `n1nc(-c2nonc2-c2nn[nH]n2)n[nH]1` .
Result: inactive

Q: Which outcome was entered for the compound `C[C@]12CC[C@@H]3c4ccc(OC(=O)Cc5ccc(N(CCCl)CCCl)cc5)cc4CC[C@H]3[C@@H]1CC[C@@H]2OC(=O)Cc1ccc(N(CCCl)CCCl)cc1` in this test?
Result: inactive

Q: # lookup: test call for `[O]=[Sn]([CH]1CCCCC1)[CH]1CCCCC1`
Result: active

Q: Could you kindly confirm the outcome this assay logged for `O=C(CCCN1CCC2(CC1)C(=O)NCN2c1ccc(F)cc1)c1ccc(F)cc1` ?
Result: inactive

Q: Dear colleague, could you share the recorded outcome for CNc1ccc(C(=O)CC(O)CCC(C)C2OC(=O)CC(O)CC(=O)CC(O)CC(O)CC(O)CC(O)CC3(O)CC(O)C(C(=O)OC)C(CC(O[C@@H]4O[C@H](C)[C@@H](O)[C@H](N)[C@@H]4O)/C=C/C=C/C=C/C=C/C=C/C=C/C=C/C2C)O3)cc1 (some centres not stated) when you have a moment?
Result: active

Q: What call does the record list for `CC[C@@H](C)/C=C(C)/C=C/C(=O)c1c(O)c(-c2ccc(O)cc2)cn(O)c1=O` ?
Result: active

Q: Tell me the assay call for `Oc1c(Br)cc(Br)cc1Br.[Cu+2]` please.
Result: inactive

Q: Any idea what this test logged for `O=C(O)c1nn(Cc2ccc(Cl)cc2)c2ccccc12` ?
Result: inactive

###

system: HL-60(TB) leukemia; assay: NCI-60 one-dose screen, 48 h; details: 10 µM unless noted
This is part of a sample that, as a whole, favours compounds with a hit. Of some 83,000 tested, about 20% had one in any assay. The source made the active and inactive calls. Rule for the calls: active = growth percent below 10; inactive = the rest.
I would appreciate it if you answered using one of these outcomes: yes for active, no for inactive

Past entries and their recorded results:
O=C1Nc2ccc(Cl)cc2/C1=N/c1nc(-c2ccc(Cl)cc2)cs1; yes
S=c1[nH]c2cc(Cl)ccc2o1; no
CC1=C(C/C=C(\C)CCC[C@H](C)CCC[C@H](C)CCCC(C)C)C(=O)c2ccccc2C1=O; no
C=C1C(=O)O[C@H]2[C@H]1CC/C(COC(=O)c1cc3cc(Cl)ccc3[nH]1)=C\CC[C@@]1(C)O[C@@H]21; yes

Please examine the following record next.
Q: Would you mind telling me which call this test gave `O=C(Cc1ccc(/C=C/C(=O)c2ncc[nH]2)cc1)Nc1cc(C(F)(F)F)cc(C(F)(F)F)c1` ?
Result: no

###

test system: HL-60(TB) leukemia; assay: NCI-60 one-dose screen, 48 h; settings: 10 µM unless noted
The panel holds about 83,000 compounds, 20% with a hit somewhere; the sample as a whole holds those more often. Calls of active or inactive are those of the source. The calls were made as follows: active = growth percent below 10; inactive = the rest.
The reply should be one of these categories: label 1 = active, label 0 = inactive

COc1cc(C2c3cc4c(cc3C(OC(=O)C[n+]3ccccc3)C3COC(=O)C23)OCO4)cc(OC)c1OC (stereo not given); label 1

Now, please, on to the next molecule.
Q: // return assay outcome for `Cc1c(Cl)cccc1NS(=O)(=O)c1ccccc1`
Result: label 0

###

test system: HL-60(TB) leukemia; experiment: NCI-60 one-dose screen, 48 h (100 = growth as untreated, 0 = no growth, -100 = all killed); conditions: 10 µM unless noted
About 83,000 compounds went through this panel and 20% of them were active in at least one assay; those are over-represented in the sample as a whole. The source made the active and inactive calls. How the source made its calls: active means growth percent below 10; inactive means the rest.
Catalogue of growth values

O=C(c1ccc(Cl)cc1)C1C(c2ccccc2)C1[N+](=O)[O-] (stereo not given); 99.3% (inactive)
Cc1[nH]c(C(=O)Nc2ccccc2OC2CCNCC2)c(Cl)c1Cl; -57.1% (active)
O=C(/C=C/C12c3ccccc3C(c3ccccc31)C1C(=O)NC(=O)C12)c1ccc(Cl)cc1 (stereo not given); -6.98% (active)
CCOC(=O)c1cn2ncnc(Oc3ccc(NC(=O)NCCN(C)C)c(Cl)c3)c2c1C; 98.6% (inactive)

Then this compound:
response.value for CC(=O)O[C@]1(C(C)=O)CCC2C3C[C@H](C)C4=CC(=O)CC[C@]4(C)C3CC[C@@]21C (stereo not given in full) (field: growth) = 87.4% (inactive)

###

Test system: K-562 leukemia
Experiment: NCI-60 one-dose screen, 48 h (100 = growth as untreated, 0 = no growth, -100 = all killed)
Conditions: 10 µM unless noted
Procedure: Cells are grown in 96 well plates and exposed to the test compound for 48 hours. Compounds are tested at a single concentration, which is 10^-5 M for most compounds. The reported endpoint is percent growth (GI% or GIPRCNT), where numbers from 0 - 100% represent growth inhibition, and numbers from -100% - 0 represent cell death. For example, a value of 40 represents 60% growth inhibition. A value of 0 means no net growth occurred over the course of the experiment. […]
Compounds without any hit were thinned out: in the full panel of roughly 83,000, 20% have a hit.
We use 70% as the dividing line for growth: on or above the line is class 1, below is class 0.

Q: Confirm if growth reported for the molecule [N-]=[N+]=NC(C(=O)O)c1ccccc1 (configuration not stated) is 70% or above.
Result: class 1

Q: Check the entry ClCCN(CCCl)c1nc(Cl)c(C2CC(c3ccc(Cl)cc3)=NN2c2cc(Cl)cc(Cl)c2)s1 (configuration not stated) : does growth equal or exceed 70%?
Result: class 1

Q: Is growth at least 70%? Consider `COc1ccc(/C=C\c2cc(OC)c(OC)c(OC)c2)cc1N/C=C\C(=O)c1c[nH]c2ccccc12`
Result: class 0

###

system: HL-60(TB) leukemia; test: NCI-60 one-dose screen, 48 h (100 = growth as untreated, 0 = no growth, -100 = all killed); details: 10 µM unless noted
About 83,000 compounds went through this panel and 20% of them were active in at least one assay; those are over-represented in the sample as a whole. Calls of active or inactive are those of the source. Rule for the calls: active = growth percent below 10; inactive = the rest.
# reported growth; entries follow

For orientation, consider the following solved cases.
C/C(C=O)=C\c1ccc2c(c1)OCO2; 102% (inactive)
O=C(O)c1cn(C2CC2)c2cc(N3CCN(S(=O)(=O)c4ccc(Cl)c(Cl)c4)CC3)c(F)cc2c1=O; -38.3% (active)
CCn1c(C)nc([N+](=O)[O-])c1Sc1nc(N)nc2nc[nH]c12; 50.9% (inactive)

growth measured on `COc1ccc(-c2nc3ncccn3c2-c2nnc(-c3ccsc3C)o2)cc1` = 92.5% (inactive)

###

# growth per record follows
System: M14 melanoma
Experiment: NCI-60 one-dose screen, 48 h (100 = growth as untreated, 0 = no growth, -100 = all killed)
Conditions: 10 µM unless noted
Experimental: Growth inhibition of the M14 human tumor cell line is measured as a screen for anti-cancer activity. Cells are grown in 96 well plates and exposed to the test compound for 48 hours. Compounds are tested at a single concentration, which is 10^-5 M for most compounds. The reported endpoint is percent growth (GI% or GIPRCNT), where numbers from 0 - 100% represent growth inhibition, and numbers from -100% - 0 represent cell death. For example, a value of 40 represents 60% growth inhibition. […]
The panel holds about 83,000 compounds, 20% with a hit somewhere; the sample as a whole holds those more often.
Expressed in %, but write only the number.

// solved cases for growth follow
CN1CCN(C(=O)COc2ccc(/C=C3\CC4C5CC=C6CC(Cl)CCC6(C)C5CCC4(C)C3=O)cc2)CC1 (stereo not drawn); -13
CNC(=O)Oc1ccccc1-c1ccccc1; 99.7
CCC[CH2][Sn]1([CH2]CCC)[O]C(=O)c2cccc([N+](=O)[O-])c2C(=O)[O]1; -89.2
n1nc(-c2nonc2-c2nn[nH]n2)n[nH]1; 115
Cc1cc(N(CCCl)CCCl)ccc1C=Nc1ccc2ccccc2c1; 88
CC(=O)O[C@H]1C[C@H](O[C@H]2[C@@H](O)C[C@H](O[C@H]3[C@@H](O)C[C@H](O[C@H]4CC[C@@]5(C)C(CCC6C5C[C@@H](O)[C@]5(C)[C@@H](C7=CC(=O)OC7)CC[C@]65O)C4)O[C@@H]3C)O[C@@H]2C)O[C@H](C)[C@H]1O[C@@H]1O[C@H](CO)[C@@H](O)[C@H](O)[C@H]1O (stereo partly drawn); -77

Considering `O=C(CCc1ccco1)NC1CCN(CC2(c3ccc(Cl)cc3)CCC2)CC1` , its growth with M14 melanoma was recorded as 10.3

Entry `c1ccc2nc(OCCN3CC3)ccc2c1` : growth on M14 melanoma = 86.5

Provenance of the data: PubChem BioAssay (NCI)
